Values were extracted from paper PMC5854746.

# Assay Protocol: clinical;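 further: plasma pharmacokinetics in a phase 1b study of patients with locally advanced or metastatic pancreatic adenocarcinoma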
# Conditions Used: human, plasma, oral, Trough concentration min–max, Pat.1, weeks 1–15, N=10, 100 mg erlotinib q.d.
Measurement Label: concentration at 24 h

Q: Provide one value: measured concentration at 24 h of C#Cc1cccc(Nc2ncnc3cc(OCCOC)c(OCCOC)cc23)c1
A: 770 to 2200 ng/mL

* * *

# Assay Protocol: clinical
# Conditions Used: human, plasma, oral, Cltot, min–max, Day 1, observed, n=26
Measurement Label: clearance

Q: Provide one value: measured clearance of C#Cc1cccc(Nc2ncnc3cc(OCCOC)c(OCCOC)cc23)c1
A: 7.83 to 502 mL/min

* * *

# Assay Protocol: clinical
# Conditions Used: human, plasma, po, 100 mg
Measurement Label: Tmax

Q: Provide one value: measured Tmax of C#Cc1cccc(Nc2ncnc3cc(OCCOC)c(OCCOC)cc23)c1
A: 1 to 8 h

* * *

# Assay Protocol: clinical
# Conditions Used: human, plasma, po, 100 mg, AUC0–24, mean ± SD, Day 1, observed, 100 mg p.o., n=26
Measurement Label: AUC(0-t)
Just so you know, I need the unit written after the number.

Q: Provide one value: measured AUC(0-t) of C#Cc1cccc(Nc2ncnc3cc(OCCOC)c(OCCOC)cc23)c1
A: 12500 ng·h/mL

* * *

# Assay Protocol: clinical
# Conditions Used: human, plasma, oral, Mean trough concentration ± SD, Pat.8, co-medication of acid reducing agents, weeks 1–16, N=16, 100 mg q.d.
Measurement Label: concentration at 24 h (ng/mL)
# unit: ng/mL | format: bare number

Q: Provide one value: measured concentration at 24 h of C#Cc1cccc(Nc2ncnc3cc(OCCOC)c(OCCOC)cc23)c1
A: 270

* * *

# Assay Protocol: clinical
# Conditions Used: human, plasma, oral, Cltot, mean ± SD, Day 1, observed, n=26, calculated with a bioavailability of 60%
Measurement Label: clearance

Q: Provide one value: measured clearance of C#Cc1cccc(Nc2ncnc3cc(OCCOC)c(OCCOC)cc23)c1
A: 91.8 mL/min

* * *

# Assay Protocol: clinical
# Conditions Used: human, plasma, oral, T 1/2el, min–max, Day 1, observed, n=26
Measurement Label: half-life

Q: Provide one value: measured half-life of C#Cc1cccc(Nc2ncnc3cc(OCCOC)c(OCCOC)cc23)c1
A: 246 to 3540 min

* * *

# Assay Protocol: clinical
# Conditions Used: human, plasma, oral, Trough plasma concentrations, range, long-term assessment (up to 50 weeks), 100 mg q.d., 10 patients
Measurement Label: concentration at 24 h

Q: Provide one value: measured concentration at 24 h of C#Cc1cccc(Nc2ncnc3cc(OCCOC)c(OCCOC)cc23)c1
A: 10 to 2400 ng/mL

* * *

# Assay Protocol: clinical
# Conditions Used: human, plasma, po, C last (trough at 24 h), mean ± SD, Day 1, observed, 100 mg p.o. q.d., n=26
Measurement Label: concentration at 24 h (ng/mL)
# unit: ng/mL | format: bare number

Q: Provide one value: measured concentration at 24 h of C#Cc1cccc(Nc2ncnc3cc(OCCOC)c(OCCOC)cc23)c1
A: 330

* * *

# Assay Protocol: clinical
# Conditions Used: human, plasma, oral, T 1/2el, mean ± SD, Day 1, observed, n=26
Measurement Label: half-life (h)
# unit: h | format: bare number

Q: Provide one value: measured half-life of C#Cc1cccc(Nc2ncnc3cc(OCCOC)c(OCCOC)cc23)c1 [erlotinib]
A: 18.7

* * *

# Assay Protocol: clinical
# Conditions Used: human, plasma, po, 100 mg, AUC0–24, min–max, Day 1, observed, 100 mg p.o., n=26
Measurement Label: AUC(0-t)

Q: Provide one value: measured AUC(0-t) of C#Cc1cccc(Nc2ncnc3cc(OCCOC)c(OCCOC)cc23)c1 [erlotinib]
A: 1230 to 36400 ng·h/mL

* * *

# Assay Protocol: clinical
# Conditions Used: human, plasma, oral, Trough concentration min–max, Pat.9, co-medication of acid reducing agents, weeks 1–50, N=47, 100 mg q.d.
Measurement Label: concentration at 24 h

Q: Provide one value: measured concentration at 24 h of C#Cc1cccc(Nc2ncnc3cc(OCCOC)c(OCCOC)cc23)c1
A: 10 to 160 ng/mL
